# Th-T fluorescence, mean of three wells per record follows
biological target: Aβ42 (Homo sapiens, UniProt P05067); test: Th-T (thioflavin-T) assay of Aβ42 aggregation; format: biochemical; conditions: compound at 50; reading M51 of time course
Sequence (P05067 672-713): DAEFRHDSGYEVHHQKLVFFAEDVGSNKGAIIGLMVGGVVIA
Give only the figure.

Illustrative cases are given below, each with its answer.
C=C1CC[C@@H]2[C@](C)(CC[C@H]3O[C@H](C=C(C)C)C[C@@]23C)[C@@H]1Cc1c(OC)oc(CO)c(C(=O)OC)c1=O : 0.2181
C=C1CCC2C(C)(CCC=C(C)C)C(O)CCC2(C)C1Cc1c(OC)oc(C)c(C(=O)OC)c1=O (centres unmarked) : 4.998
C=C1CC[C@@H]2[C@](C)(CC[C@H]3O[C@H](C=C(C)C)C[C@@]23C)[C@@H]1Cc1c(OC)oc(CO)c(C)c1=O : 2.089
C=C1CCC2C(C)(CCC=C(C)C)C(O)CCC2(C)C1Cc1c(OC)oc(CO)c(C(=O)OC)c1=O (centres unmarked) : 0.4698

Turning to the following compound.
What value of Th-T fluorescence, mean of three wells has been recorded for this entry: C=C1CCC2C(C)(CCC=C(C)C)C(O)CCC2(C)C1Cc1c(OC)oc(CO)c(C)c1=O (centres unmarked) 1.492
